# TESTED TARGET: HLA-A2/HPV16E7:11-19 on peptide-pulsed T2 cells (human; human papillomavirus type 16)
# PROTOCOL NOTES: MSD cell binding, T2
PROPERTY MEASURED: EC50 (nM)
Reply with just the number (in nM).

Item H4sH21079P (antibody, V domains shown) VH: EVQLVESGGGLVKPGGSLRLSCAASGFTFSNAWMSWVRQAPGKGLEWVGRIKTRADGGTTDYAAPVKGRFTISRDDSKNTLYLQLNSLKTEDTAVYYCTSHNWNYEDFDYWGQGTLVTVSS VL: DIQMTQSPSSLSASVGDRVTITCRASQSISNYLNWYQQKPGKAPKLLIYAASSLQSGVPSRFSGSGSGTDFTLTISSLQPEEFATYYCQQSYSIPYTFGQGTKLEIK has what recorded EC50?
1.1

Item H4sH17364N (antibody, V domains shown) VH: EVQLLESGGGLVQPGGSLRLSCAASGFTFSSYAMTWVRQAPGKGLEWVSVISGSGSETYYADSVKGRFTISRDNSKNTLYLQMNSLRAEDTAVYYCVKDSSYRSSSRAYYYYGMDVWGLGTTVTVSS VL: DIQMTQSPSSLSASVGDRVTITCRASQSISSYLNWYQQKPGKAPKLLIYAVSILQSGVPSRFSGSGSGTDFTLTISSLQPEDFATYSCQQTYSTPPITFGQGTRLEIKR has what recorded EC50?
2

Item H4sH17672P (antibody, V domains shown) VH: EVQLVESGGGLVQPGASLRLSCEASGFTLSFYSMHWVRQAPGRELEYVSGISGNGNNIYYRDSVKGRFTISRDNSKNTLNLQMGSVRAEDMGVYYCARSYSSGNSYNYYYGMDVWGQGTTVTVSS VL: DIQMTQSPSSLSASVGDRVTITCRASQTISSYLNWYQQKPGKAPKLLIYAVSNLQSGVPSRFSGSGSGTDFTLTISSLQPEDFATYYCQQSYSTPPITFGQGTRLEIK has what recorded EC50?
0.45
